system: ACTA2-promoter-driven-luciferase in NIH3T3 cells; experiment: NIH3T3 Acta2-promoter driven-luciferase assay; type: cell-based; settings: Mus musculus, plus TGFβ1, 24 hr, read-out: NIH3T3, Acta2-luc, IC50
quantity-measured: pIC50
Bear in mind: pIC50 is minus log10 of a mol/L concentration; give just that figure.

# molecule, assayed-target, val
records = [
    ("COCCN[C@@H](C(=O)Nc1ccc(-c2cn[nH]c2)cc1)c1cccc(OC)c1", "ACTA2-promoter-driven-luciferase in NIH3T3 cells", 7.13),
]

// query Fill in the blank: the reported pIC50 of CNC(C(=O)Nc1ccc(-c2cn[nH]c2)cc1)c1cccc(C)c1 (centres unmarked) is ____.
// result 6.30

// query Endpoint output: pIC50 of COCCNC(C(=O)Nc1ccc(-c2cn[nH]c2)c(OC)c1)c1cccc(OC)c1 (centres unmarked) . Value?
// result 7.11
